PROTOCOL: Plasma concentration in mouse at 25 mg/kg, po after 3 hrs by LC-MS/MS analysis
Type: ADME, organism-based
Returns true (1) if the recorded concentration at 3 h is greater than or equal to 200 ng/mL, and false (0) otherwise.

Tell me whether concentration at 3 h is at least 200 ng/mL here: "Cc1cc(S(C)(=O)=O)ccc1-c1cnc(NCc2c(F)ccc3c2CCO3)n2cnc(S(C)(=O)=O)c12" true (1)

concentration at 3 h >= 200 ng/mL for "Cc1nc(C(F)(F)F)ccc1-c1cnc(NCc2c(F)ccc3c2CCO3)n2cnc(S(C)(=O)=O)c12" ? true (1)

Confirm if concentration at 3 h reported for the compound "CS(=O)(=O)c1ccc(-c2cnc(NCc3c(F)ccc4c3CCO4)n3cnc(S(C)(=O)=O)c23)cc1" is 200 ng/mL or above. false (0)

Check if concentration at 3 h >= 200 ng/mL (inclusive). Item: "CS(=O)(=O)c1ncn2c(NCc3c(F)ccc4c3CCO4)ncc(-c3ccc(C(F)F)nc3)c12" false (0)

Textbook exercise: given the entry "Cc1ccc(-c2cnc(NCc3c(F)ccc4c3CCO4)n3cnc(S(C)(=O)=O)c23)c(C)n1" , state whether its concentration at 3 h is greater than or equal to 200 ng/mL. true (1)
